Value source: patent US20230140290A1

- System: A549 cells
- TEST_PROTOCOL: Cytotoxicity assay (AlamarBlue)
- CONDITION: read-out: CC50 (μM), cytotoxic concentration 50%; A549 cell line, 48 h
PROPERTY_NAME: CC50 (µM)
Write the number in µM without appending the unit.

Worked set:
> print(dat)
                            compound.smiles  property.name  unit.of.measurement  value
1    O=C(Nc1ccc(NCC2CC2)cc1Cl)c1cc(Cl)ccc1O           CC50                   µM   14.4
2  O=C(Nc1ccc(NCc2cccc(C(F)(F)F)c2)cc1Cl)c1cc(Cl)ccc1O           CC50                   µM   13.3
3      CCNc1ccc(NC(=O)c2cc(Cl)ccc2O)c(Cl)c1           CC50                   µM   30.2
4      C[C@@H](NC(=O)c1cc(Cl)ccc1O)c1ccccc1           CC50                   µM   84.6
5  O=C(Nc1ccc(NCc2ccc(Br)cc2)cc1Cl)c1cc(Cl)ccc1O           CC50                   µM   40.9
6  O=C(Nc1ccc(NC2CCCC2)c(Cl)c1)c1cc(Cl)ccc1O           CC50                   µM   16.9
7  CC(C)[C@H](NC(=O)c1cc(Cl)ccc1O)C(=O)Nc1cc(C(F)(F)F)cc(C(F)(F)F)c1           CC50                   µM   30.9
8  O=C(Nc1ccc(NCc2ccncc2)cc1Cl)c1cc(Cl)ccc1O           CC50                   µM   65.3

input: Need CC50 of O=C(Nc1ccc(NCc2cc(F)cc(Cl)c2)cc1Cl)c1cc(Cl)ccc1O , thanks.
output: 11.1

input: Requested read-out: CC50. Entry: O=C(Nc1ccc(NCc2cc(Cl)cc(C(F)(F)F)c2)cc1Cl)c1cc(Cl)ccc1O
output: 30.9

input: Looking for the measured CC50 of O=C(Nc1ccc(NCc2ccc(O)nc2)cc1Cl)c1cc(Cl)ccc1O , can you help?
output: 98.5

input: Any idea what CC50 was measured for O=C(Nc1cc(NC2CCCC2)ccc1F)c1cc(Cl)ccc1O ?
output: 44

input: What measured CC50 goes with O=C(Nc1ccc(NCc2ccc(C(F)(F)F)cc2)cc1Cl)c1cc(Cl)ccc1O ?
output: 62.7

input: Given O=C(CNC(=O)c1cc(Cl)ccc1O)Nc1ccc([N+](=O)[O-])cc1Cl , state its recorded CC50.
output: 129

input: Need CC50, item O=C(Nc1cc(F)cc(C(F)(F)F)c1)c1ccccc1O
output: 16.3

input: Name the reported CC50 value associated with the molecule CC(C)[C@H](NC(=O)c1cc(Cl)ccc1O)C(=O)Nc1cc(F)cc(C(F)(F)F)c1
output: 43

input: Would you kindly share the measured CC50 for O=C(Nc1ccc(NCc2cc(F)cc(C(F)(F)F)c2)cc1Cl)c1cc(Cl)ccc1O ?
output: 30.9

input: # lookup: CC50 of O=C(Nc1cc([N+](=O)[O-])ccc1F)c1cc(Cl)ccc1O
output: 8.1
